B1: ATGL (PNPLA2, patatin-like phospholipase domain-containing protein 2), human, full length / perilipin-5, mouse (mPlin5) (parent)
chain 1: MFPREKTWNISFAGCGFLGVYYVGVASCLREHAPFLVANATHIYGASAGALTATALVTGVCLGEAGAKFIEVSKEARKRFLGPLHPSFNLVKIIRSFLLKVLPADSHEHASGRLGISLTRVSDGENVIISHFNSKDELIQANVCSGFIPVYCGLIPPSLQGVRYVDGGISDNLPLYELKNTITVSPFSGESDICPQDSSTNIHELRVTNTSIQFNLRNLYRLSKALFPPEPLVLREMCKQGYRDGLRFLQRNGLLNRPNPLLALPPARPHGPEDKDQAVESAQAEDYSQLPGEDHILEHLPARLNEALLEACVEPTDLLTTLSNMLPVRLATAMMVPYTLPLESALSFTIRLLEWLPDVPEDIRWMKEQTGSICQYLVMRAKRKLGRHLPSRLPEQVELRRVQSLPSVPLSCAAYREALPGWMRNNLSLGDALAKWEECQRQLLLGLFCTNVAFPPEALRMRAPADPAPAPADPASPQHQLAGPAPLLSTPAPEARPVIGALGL
chain 2: MDQRGEDTTLAPHSRMSGDQTAQDPGSSLGELDQQNVVNRVVALPLVKATCTAVSSAYNSAKDRHPLLGSACRLAEHCVCSVTTCALDHAQPLLEHLQPQLATVNDLACRGLDKLEEKLPFLQQPSDMVVTSAKDTVAKSVTGMVDLAQRGRRWSGELRRSMSQAMDMVLGKSEKLVDRFLPMTEAELAVLAAEAEGPEVGTVEEQRQQQGYFVRLGSLSARLRHLAYEHSLGKLRQSKHRTQEMLAQLQETLELIQHMQRGASPSPTFHPPKTQELWGSWSPCLENGRSHSEVELETLALSRSLTLELQNAVDALAGCVRGLPPSAQAKVAEVQRSVDALQATFADAHCLGDVAPTALAEGRGSVARAHACVDEFLDLVLRAMPLPWLVGPFAPILVEQSEPLINLATCVDEVVGDPDPRWAHMDWPAQKRAWEAESADPGGQEAEPPRGQGKHTMMPELDF

Variants of: B1
assay_procedure: LUMIER: Protein A-ATGL variant and firefly luciferase-partner co-expressed in HEK293T, lysates immunoprecipitated on IgG-coated plates, co-precipitated partner measured as luciferase luminescence
study_conditions: with perilipin-5, mouse (mPlin5), transient co-transfection, IgG-coated LUMITRAC plates, 2 h at 4 °C, three PBS washes, Bright-Glo luciferase reagent, triplicates per assay, two …, parent: 0.46, not graded, scale: log2 fold change of co-immunoprecipitated luminescence relative to wild-type ATGL within each experiment
Class TRUE: screen value at least -0.05. Class FALSE: screen value below -0.05.

variant_identifier | group_label
chain 1 A434L | TRUE
chain 1 Q140A | TRUE
chain 1 L261E | FALSE
chain 1 R329E | FALSE
chain 1 F348E | FALSE
chain 1 P103K | FALSE
chain 1 G66A | TRUE
chain 1 T41A | TRUE
chain 1 Y415A | TRUE
chain 1 F35A | TRUE
chain 1 S158E | TRUE
